molecular target: histamine-(H1)-receptor (Cavia porcellus, UniProt P31389); construct: Segments of the ileum 1.5 cm long from Dunkin Hartley guinea pigs; from tissue; host or cells: isolated ileum of Dunkin Hartley guinea pigs; assay: Histamine-(H1)-receptor antagonism in vitro, histamine-induced contractions of isolated ileum; format: cell-based, guinea pig (Dunkin Hartley); settings: 10 min; test substance 10^-6 mole/l, histamine 5 × 10^-6 mole/l, after 10 minutes (after washing); read-out: % inhibition of histamine-induced ileum contractions after 10 minutes
Sequence (P31389 whole entry): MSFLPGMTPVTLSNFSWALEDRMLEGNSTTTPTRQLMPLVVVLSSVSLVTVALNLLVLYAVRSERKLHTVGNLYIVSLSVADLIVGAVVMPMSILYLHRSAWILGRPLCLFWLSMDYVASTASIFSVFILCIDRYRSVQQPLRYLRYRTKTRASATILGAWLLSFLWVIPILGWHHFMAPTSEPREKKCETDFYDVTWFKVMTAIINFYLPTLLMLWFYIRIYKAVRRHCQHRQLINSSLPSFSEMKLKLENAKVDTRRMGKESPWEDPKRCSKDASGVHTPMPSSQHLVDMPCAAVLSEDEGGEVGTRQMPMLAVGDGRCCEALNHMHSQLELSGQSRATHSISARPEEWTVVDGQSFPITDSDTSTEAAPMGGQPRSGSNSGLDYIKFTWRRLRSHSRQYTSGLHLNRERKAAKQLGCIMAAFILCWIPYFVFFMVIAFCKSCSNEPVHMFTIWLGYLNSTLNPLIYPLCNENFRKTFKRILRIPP
Rule: inhibition at 1 µM of 60% or more gives TRUE; anything lower gives FALSE.

{"molecule": "Cc1ccnc(N2CCN(CCCCC3Oc4ccc(C)cc4NC3=O)CC2)c1 (stereo not drawn) [Example 24]", "class": "TRUE"}
{"molecule": "COc1cccc(N2CCN(CCCCC3Sc4ccccc4NC3=O)CC2)n1 (stereo not drawn) [Example 16]", "class": "FALSE"}
{"molecule": "Cc1ccnc(N2CCN(CCCC3Sc4cc(C)ccc4NC3=O)CC2)c1 (stereo not drawn) [Example 10]", "class": "FALSE"}
{"molecule": "Cc1ccnc(N2CCN(CCCCC3Oc4ccc(Cl)cc4NC3=O)CC2)c1 (stereo not drawn) [Example 23]", "class": "TRUE"}
{"molecule": "Cc1ccnc(N2CCN(CCCCC3Oc4ccccc4NC3=O)CC2)c1 (stereo not drawn) [Example 7]", "class": "TRUE"}
{"molecule": "Cc1ccnc(N2CCN(CCCCC3Sc4ccccc4N(C)C3=O)CC2)c1 (stereo not drawn) [Example 3]", "class": "FALSE"}
{"molecule": "Cc1ccnc(N2CCN(CCCCC3Sc4cc(F)ccc4NC3=O)CC2)c1 (stereo not drawn) [Example 18]", "class": "TRUE"}
{"molecule": "Cc1ccnc(N2CCN(CCCCC3Sc4cc(C)c(C)cc4NC3=O)CC2)c1 (stereo not drawn) [Example 21]", "class": "TRUE"}

// data source = patent US5332733A
